Structures can show the parent of a compound that is named as a salt.
Reported Endpoint: melting point

Use the examples below as a reference point.
# Compound, Assay Result
rows = [
    ("Cc1ccc(C2CN(C)Cc3c2ccc2ccoc32)cc1 (single isomer, unassigned) (as salt: hydrochloride)", "240 to 246 °C"),
    ("CN1Cc2c(ccc3ccoc23)C(c2ccccc2)C1 (single isomer, unassigned)", "81 to 83 °C"),
    ("CN1Cc2c(ccc3ccoc23)C(c2cc(F)cc(F)c2)C1 (stereo not drawn) (as salt: hydrochloride)", "233 to 236 °C"),
    ("CN1Cc2c(ccc3ccoc23)C(c2ccccc2)C1 (single isomer, unassigned) (as salt: maleate)", "165 to 168 °C"),
    ("CN1Cc2c(ccc3ccoc23)C(c2ccc(F)cc2)C1 (stereo not drawn) (as salt: hydrochloride)", "242 to 257 °C"),
]

We next turn to a different compound, shown below.
Prompt line: I have this compound here, Cc1ccc(C2CN(C)Cc3c2ccc2ccoc32)cc1 (single isomer, unassigned) (as salt: maleate) , and I need its recorded melting point.
Response line: 190 to 191 °C
